Cited source: ChEMBL document CHEMBL1157503

experiment: Displacement of [3H]flumazenil from GABAA receptor in rat cortical membrane; type: cell membranes
MEASUREMENT NAME: Ki (nM)
The figure you give is taken to be in nM; do not add the unit.

query: Look at this compound and give its reported Ki. "CCCCC(=O)c1c[nH]c2ccc(Cc3ccccn3)cc2c1=O"
result: 0.23

query: # query: Ki of entry "CCc1ccc2[nH]cc(C(=O)CCC(C)(C)C)c(=O)c2c1"
result: 19

query: Which value of Ki has been reported for "CCCCC(=O)c1c[nH]c2ccc(Br)cc2c1=O" in the records?
result: 0.54

query: # input compound: "CCCCC(=O)c1c[nH]c2ccc(CCc3ccccc3)cc2c1=O" ; wanted: its Ki
result: 0.42

query: Quick one: Ki of "CCCCC(=O)c1c[nH]c2ccc(-c3ccccc3)cc2c1=O" ?
result: 28

query: State the recorded Ki for this entry: "CCc1ccc2[nH]cc(C(=O)CC3CCCC3)c(=O)c2c1"
result: 7.9

query: Which Ki value is on record for CCc1ccc2[nH]cc(C(=O)CC(C)CC)c(=O)c2c1 (configuration not stated) ?
result: 18

query: Give the measured Ki of "CCCCC(=O)c1c[nH]c2ccc(CC)cc2c1=O" .
result: 0.9

query: # input compound: "CCCCC(=O)c1c[nH]c2ccc(CCCc3ccccc3)cc2c1=O" ; wanted: its Ki
result: 2.5

query: Find the recorded Ki belonging to "CCCCC(=O)c1c[nH]c2ccc([N+](=O)[O-])cc2c1=O" and report it.
result: 0.87

query: Entry "CCCCC(=O)c1c[nH]c2ccccc2c1=O" : reported Ki = ?
result: 2.2

query: Return reported Ki; argument: "CCCCC(=O)c1c[nH]c2ccc(Cc3ccccc3)cc2c1=O"
result: 0.17
